# Tested on: Canis familiaris
# assay text: Area under curve was measured after po administration into Beagle dog
# Type: ADME, organism-based, Canis lupus familiaris
# condition set: in vivo
measure: AUC (ng·h/mL)
Numeric only. Scale: ng·h/mL

## Task Please report AUC for the following molecule: CN(C(=O)[C@@H](Cc1ccc2ccccc2c1)NC(=O)c1cccc(CN)c1)[C@H](Cc1ccccc1)C(=O)N[C@@H](CCCCN)C(N)=O
## Result 48

* * *

Listing of recorded ED50 by entry.
# Tested on: Rattus norvegicus
# assay text: Tested in vivo for GH-releasing potency against anesthetized male rats
# Type: functional
# Set-up: unit not given here
Non-standard residues stand in square brackets, D forms with d. Residues, ends and D or L forms follow the SMILES beside them. d2Nal = N[C@H](Cc1ccc2ccccc2c1)C(=O)O; 3Amb = NCc1cccc(C(=O)O)c1; Aib = CC(C)(N)C(=O)O

Solved entries (count: 3):
CN(C(=O)[C@@H](Cc1ccc2ccccc2c1)NC(=O)[C@H](Cc1c[nH]cn1)NC(=O)C(C)(C)N)[C@H](Cc1ccccc1)C(=O)N[C@@H](CCCCN)C(N)=O
1.8
CNCc1cccc(C(=O)N[C@H](Cc2ccc3ccccc3c2)C(=O)N[C@H](Cc2ccccc2)C(=O)N[C@@H](CCCCN)C(N)=O)c1
65
NCCCC[C@H](NC(=O)[C@@H](Cc1ccccc1)NC(=O)[C@@H](Cc1ccc2ccccc2c1)NC(=O)c1cccc(CN)c1)C(N)=O (H-[3Amb][d2Nal][dF]K-NH2)
>4800

## Task Quote ED50 with test system Rattus norvegicus for CC(C)(N)C(=O)N[C@@H](Cc1c[nH]cn1)C(=O)N[C@H](Cc1ccc2ccccc2c1)C(=O)N[C@H](Cc1ccccc1)C(=O)N[C@@H](CCCCN)C(N)=O [IPAMORELIN] (H-[Aib]H[d2Nal][dF]K-NH2)
## Result 85

## Task Quote ED50 with test system Rattus norvegicus for CN(C(=O)[C@@H](Cc1ccc2ccccc2c1)NC(=O)c1cccc(CN)c1)[C@H](Cc1ccccc1)C(=O)N[C@@H](CCCCN)C(N)=O
## Result 80
